Collected Ki for Glucagon-like peptide 1 receptor (Homo sapiens) across several studies; molecules listed below.
readout: Ki (µM)

See these solved cases before continuing.
molecule	uom	Ki
O=C(O)CCNC(=O)c1ccc(C(CCC(F)(F)F)Nc2cnn(-c3ccc(C(F)(F)F)cc3)c2)cc1 (single isomer, unassigned; (-))	µM	4.22
CCc1cc(OC)ccc1-c1ccc(C[C@H](NC(=O)[C@H](CC(=O)O)NC(=O)[C@H](CO)NC(=O)[C@@H](NC(=O)[C@](C)(Cc2ccccc2F)NC(=O)[C@H]2CCSSC[C@@H](NC(=O)[C@@H](N)Cc3cnc[nH]3)C(=O)N[C@@H](CCC(=O)O)C(=O)NCC(=O)N2)[C@@H](C)O)C(=O)N[C@@H](CCCc2ccccc2)C(N)=O)cc1	µM	0.55
CCc1cc(OC)ccc1-c1ccc(C[C@H](NC(=O)[C@H](CC(=O)O)NC(=O)[C@H](CO)NC(=O)[C@@H](NC(=O)[C@](C)(Cc2ccccc2F)NC(=O)[C@@H]2CCSSCC[C@H](NC(=O)[C@@H](N)Cc3cnc[nH]3)C(=O)N[C@@H](CCC(=O)O)C(=O)NCC(=O)N2)[C@@H](C)O)C(=O)N[C@@H](CCCc2ccccc2)C(N)=O)cc1	µM	3

1. CCCC(Oc1cnn(-c2ccc(C(F)(F)F)cc2)c1)c1ccc(C(=O)NCCC(=O)O)cc1 (single isomer, unassigned; (-))
2. CCn1cncc1Cn1c(CN2CCC(c3cccc(OCc4ccc(F)cc4F)n3)CC2)nc2ccc(C(=O)O)cc21
Hi! Which is lower in terms of Ki, the first one 1 or the second one 2 ? Selection: enter the item's label.
2
(2: 0.051 µM, 1: 16.5 µM)
